B1: GLuc2-NS2 (hepatitis C virus nonstructural 2 protein, wild type) [hepatitis C virus (J6/JFH genome)] / GLuc1-tagged μ subunit of the AP-1B complex [not stated] (parent)
chain 1: YDASVHGQIGAALLVLITLFTLTPGYKTLLSRFLWWLCYLLTLAEAMVQEWAPPMQVRGGRDGIIWAVAIFCPGVVFDITKWLLAVLGPAYLLKGALTRVPYFVRAHALLRMCTMVRHLAGGRYVQMVLLALGRWTGTYIYDHLTPMSDWAANGLRDLAVAVEPIIFSPMEKKVIVWGAETAACGDILHGLPVSARLGREVLLGPADGYTSKGWSLL
chain 2: MSASAVFILDVKGKPLISRNYKGDVAMSKIEHFMPLLVQREEEGALAPLLSHGQVHFLWIKHSNLYLVATTSKNANASLVYSFLYKTIEVFCEYFKELEEESIRDNFVIVYELLDELMDFGFPQTTDSKILQEYITQQSNKLETGKSRVPPTVTNAVSWRSEGIKYKKNEVFIDVIESVNLLVNANGSVLLSEIVGTIKLKVFLSGMPELRLGLNDRVLFELTGRSKNKSVELEDVKFHQCVRLSRFDNDRTISFIPPDGDFELMSYRLSTQVKPLIWIESVIEKFSHSRVEIMVKAKGQFKKQSVANGVEISVPVPSDADSPRFKTSVGSAKYVPERNVVIWSIKSFPGGKEYLMRAHFGLPSVEKEEVEGRPPIGVKFEIPYFTVSGIQVRYMKIIEKSGYQALPWVRYITQSGDYQLRTS

- Variants of: B1
- assay-explanation: PCA (protein-fragment complementation assay)
- setup-conditions: with GLuc1-tagged μ subunit of the AP-1B complex; parent: 1; read off a plot
property-name: ratio to parent
// keep it numeric: no unit symbol after the value

Here are 5 variants together with their reported answers.
mutation_code="chain 1 L217A" property_name="ratio to parent" reported_value=0.76
mutation_code="chain 1 L202A" property_name="ratio to parent" reported_value=0.8
mutation_code="chain 1 L202A L203A L216A L217A" property_name="ratio to parent" reported_value=0.47
mutation_code="chain 1 D207A" property_name="ratio to parent" reported_value=0.79
mutation_code="chain 1 L203A" property_name="ratio to parent" reported_value=0.67

Given chain 1 L216A , state its recorded ratio to parent.
0.77

Given chain 1 L202A L217A , state its recorded ratio to parent.
0.55

Given chain 1 E200A , state its recorded ratio to parent.
0.97

Just for reference, paper PMC5850324 is where these values come from.
